B1: CPEB3 Ribozyme (parent)
chain: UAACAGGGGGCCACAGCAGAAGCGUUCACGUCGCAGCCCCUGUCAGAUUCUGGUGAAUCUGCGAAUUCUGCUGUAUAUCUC

Variants of: B1
Assay: self-cleavage, relative activity (ratio to wild type); higher = more cleavage; in vitro, sequencing
Values of self-cleavage greater than or equal to 0.3 map to 1; values below map to 0.

Below, 2 variants whose answers are already recorded.
Ask: Could you please find out whether G10C U43C has self-cleavage that meets 0.3 or exceeds it?
Reply: 0

Ask: Kindly determine if self-cleavage recorded for A3G G24A is above or exactly 0.3.
Reply: 1

---
Ask: // inclusive: self-cleavage at least 0.3? input: G6U U76C
Reply: 0

Ask: In plain terms: is recorded self-cleavage at least 0.3 for A20G C34A ?
Reply: 0
